Every entry's value here was drawn from patent US20260256790A1.

- ASSAY_DETAILS: Plasma and brain concentrations (PK) in healthy mice after oral dosing
- Format: in vivo, Nu/Nu mice
- CONDITION_DESCRIPTION: male, Nu/Nu, mouse, plasma, po, 30 mg/kg, bid for 3 days and once on day 4, oral; day 4; read-out: AUCLast, plasma
REPORTED_PROPERTY: AUC(0-t) (ng·h/mL)
Answer format: numeric, ng·h/mL implied, no suffix.

// AUC(0-t) lookup, key: C=CCn1c(=O)c2cnc(Nc3ccc(N4CCN(C)CC4)cc3)nc2n1-c1cccc(C(C)(C)O)n1 [AZD-1775, adavosertib, reference compound]
1950

* * *

- ASSAY_DETAILS: Free fraction in rat plasma (separate experiment, not shown)
- Format: in vitro ADME
REPORTED_PROPERTY: fraction unbound
Form: value (number only, do not type unit).

// fraction unbound lookup, key: Cc1cc(Nc2ncc3c(n2)N(C)CN(c2c(Cl)cccc2Cl)C3=O)ccc1C1CCN(C)CC1 [Compound of formula (I)]
0.078

* * *

- ASSAY_DETAILS: Plasma and brain concentrations (PK) in healthy mice after oral dosing
- Assay type: in vivo, Nu/Nu mice
- CONDITION_DESCRIPTION: male, Nu/Nu, mouse, brain/plasma, po, 30 mg/kg, qd for four days, oral; day 4; read-out: Brain to plasma ratio based on Cmax
REPORTED_PROPERTY: Kp

// Kp lookup, key: Cc1cc(Nc2ncc3c(n2)N(C)CN(c2c(Cl)cccc2Cl)C3=O)ccc1C1CCN(C)CC1 [Compound of formula (I)]
0.498

* * *

- ASSAY_DETAILS: Drug concentration in monkey brain and plasma after daily oral administration for 91 days
- Format: in vivo, cynomolgus monkeys
- CONDITION_DESCRIPTION: female, cynomolgus monkey, brain (left forebrain) / plasma, po, 10 mg/kg, 10 mg/kg oral once a day for 91 days; read-out: Mean brain:plasma ratio (±SD), at 24 h post last dose (n = 3)
REPORTED_PROPERTY: Kp at 24 h
Form: value (number only, do not type unit).

// Kp at 24 h lookup, key: Cc1cc(Nc2ncc3c(n2)N(C)CN(c2c(Cl)cccc2Cl)C3=O)ccc1C1CCN(C)CC1 [Compound of formula (I)]
4.32

* * *

- ASSAY_DETAILS: CSF and matching plasma concentrations in glioma patients (clinical trial Arms A and B)
- Type: in vivo, human
- CONDITION_DESCRIPTION: human, plasma, 200 mg, Arm A, 200 mg, day 11 of cycle 1; read-out: Raw data concentration in plasma
REPORTED_PROPERTY: concentration at 11 day (ng/mL)
Answer format: numeric, ng/mL implied, no suffix.

// concentration at 11 day lookup, key: Cc1cc(Nc2ncc3c(n2)N(C)CN(c2c(Cl)cccc2Cl)C3=O)ccc1C1CCN(C)CC1
322

* * *

- ASSAY_DETAILS: CSF and matching plasma concentrations in glioma patients (clinical trial Arms A and B)
- Type: in vivo, human
- CONDITION_DESCRIPTION: human, plasma, 90 mg, Arm B, 90 mg daily, Week 3 day 1 (Day 15); read-out: Raw data concentration in plasma
REPORTED_PROPERTY: concentration at 15 day (ng/mL)
Answer format: numeric, ng/mL implied, no suffix.

// concentration at 15 day lookup, key: Cc1cc(Nc2ncc3c(n2)N(C)CN(c2c(Cl)cccc2Cl)C3=O)ccc1C1CCN(C)CC1 [Compound of formula (I)]
309
